biological target: HIV-1 pseudovirus 6952.v1.c20 (HIV-1); test: cell-based or functional assay
Some binders, each annotated with its measured IC50 (neutralization in TZM.bl cells).
Answer in mg/L, number only, no unit symbol.

Known results for binders:
[ask] Please look up its IC50 (neutralization in TZM.bl cells): MS-74 (antibody, V domains shown) VH: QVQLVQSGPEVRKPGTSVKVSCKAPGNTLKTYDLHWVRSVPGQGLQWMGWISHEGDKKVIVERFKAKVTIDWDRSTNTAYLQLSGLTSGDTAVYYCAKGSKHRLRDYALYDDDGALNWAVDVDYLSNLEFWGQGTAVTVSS VL: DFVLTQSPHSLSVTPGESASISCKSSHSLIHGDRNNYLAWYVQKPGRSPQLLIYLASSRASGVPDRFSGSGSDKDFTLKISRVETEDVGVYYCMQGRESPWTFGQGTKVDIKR
[reply] 0.285

[ask] // IC50 (neutralization in TZM.bl cells) lookup, key: MS-78 (antibody, V domains shown) VH: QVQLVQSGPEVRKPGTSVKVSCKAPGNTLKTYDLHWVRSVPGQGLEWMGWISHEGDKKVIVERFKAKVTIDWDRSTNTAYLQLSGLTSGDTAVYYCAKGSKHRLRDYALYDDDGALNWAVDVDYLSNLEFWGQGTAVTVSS VL: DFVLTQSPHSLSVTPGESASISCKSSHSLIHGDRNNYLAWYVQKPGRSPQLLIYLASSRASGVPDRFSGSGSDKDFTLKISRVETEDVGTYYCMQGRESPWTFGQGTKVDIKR
[reply] 0.342

[ask] Item MS-91 (antibody, V domains shown) VH: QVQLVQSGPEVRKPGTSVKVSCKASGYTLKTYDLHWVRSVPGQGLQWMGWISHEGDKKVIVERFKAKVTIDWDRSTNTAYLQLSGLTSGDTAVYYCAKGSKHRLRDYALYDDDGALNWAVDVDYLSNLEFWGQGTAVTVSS VL: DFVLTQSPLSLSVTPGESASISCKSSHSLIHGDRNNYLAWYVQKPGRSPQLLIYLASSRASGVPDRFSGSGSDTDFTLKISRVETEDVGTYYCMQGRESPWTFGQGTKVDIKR has what recorded IC50 (neutralization in TZM.bl cells)?
[reply] 2.62

Continuing:
[ask] Data request, read-out IC50 (neutralization in TZM.bl cells), for MS-70 (antibody, V domains shown) VH: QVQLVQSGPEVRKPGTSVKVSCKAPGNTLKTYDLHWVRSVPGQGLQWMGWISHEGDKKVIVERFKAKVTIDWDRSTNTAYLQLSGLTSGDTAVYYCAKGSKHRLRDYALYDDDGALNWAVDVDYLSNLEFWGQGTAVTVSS VL: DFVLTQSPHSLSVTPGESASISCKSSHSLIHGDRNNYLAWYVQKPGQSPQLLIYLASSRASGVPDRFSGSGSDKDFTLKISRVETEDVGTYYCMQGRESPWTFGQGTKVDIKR
[reply] 0.285

[ask] Quick one: IC50 (neutralization in TZM.bl cells) of MS-81 (antibody, V domains shown) VH: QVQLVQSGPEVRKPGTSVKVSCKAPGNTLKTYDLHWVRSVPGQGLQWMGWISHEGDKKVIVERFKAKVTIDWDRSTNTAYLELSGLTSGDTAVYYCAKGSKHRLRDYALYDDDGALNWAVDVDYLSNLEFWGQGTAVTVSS VL: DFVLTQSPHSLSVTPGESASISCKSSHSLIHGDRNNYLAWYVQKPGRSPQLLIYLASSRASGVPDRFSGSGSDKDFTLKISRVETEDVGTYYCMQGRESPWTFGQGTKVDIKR ?
[reply] 0.228

[ask] Need IC50 (neutralization in TZM.bl cells) of MS-82 (antibody, V domains shown) VH: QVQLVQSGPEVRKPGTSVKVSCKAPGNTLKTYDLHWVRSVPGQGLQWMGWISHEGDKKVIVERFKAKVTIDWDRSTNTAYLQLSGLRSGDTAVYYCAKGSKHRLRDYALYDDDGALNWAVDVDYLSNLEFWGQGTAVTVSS VL: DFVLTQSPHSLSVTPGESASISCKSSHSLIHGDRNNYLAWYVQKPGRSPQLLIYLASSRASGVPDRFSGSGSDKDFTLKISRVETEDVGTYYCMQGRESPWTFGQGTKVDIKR , thanks.
[reply] 0.212
